- ASSAY TARGET: atypical chemokine receptor ACKR3 (formerly CXCR7) (human, UniProt P25106 1-362)
- Sequence (P25106 whole entry): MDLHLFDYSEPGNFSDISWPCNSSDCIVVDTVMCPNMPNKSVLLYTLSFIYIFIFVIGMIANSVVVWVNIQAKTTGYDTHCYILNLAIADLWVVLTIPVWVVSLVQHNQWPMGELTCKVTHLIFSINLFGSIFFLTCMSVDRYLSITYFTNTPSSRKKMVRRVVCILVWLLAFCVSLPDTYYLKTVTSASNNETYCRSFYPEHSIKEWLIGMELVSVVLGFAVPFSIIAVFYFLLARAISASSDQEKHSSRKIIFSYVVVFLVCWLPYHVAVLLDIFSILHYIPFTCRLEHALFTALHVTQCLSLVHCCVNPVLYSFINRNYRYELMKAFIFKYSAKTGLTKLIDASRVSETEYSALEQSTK
- ASSAY TEXT: cell-based or functional assay
No end group written: not given here.
Supplementary Table 9: EC50 of β-arrestin-1 recruitment to ACKR3, CHO cells: recorded values
MEASUREMENT KIND: Supplementary Table 9: EC50 of β-arrestin-1 recruitment to ACKR3, CHO cells

[
  {
    "BINDER": "YGGFLRRQFKVVT [Dynorphin B]",
    "VALUE": "~1000 nM"
  },
  {
    "BINDER": "FGGFTGARKSARK-NH2 (also: ψ(CH2-NH) bond between Phe1 and Gly2) [[Phe1Ψ(CH2-NH)-gly2]nociceptin-(1-13)-NH2]",
    "VALUE": "~5000 nM"
  },
  {
    "BINDER": "FGGFTGARKSARKLANQ [Nociceptin]",
    "VALUE": "~10000 nM"
  },
  {
    "BINDER": "YGGFMRRVGRPEWWMDYQKRYG [BAM22]",
    "VALUE": "12.5 nM"
  },
  {
    "BINDER": "YGGFMRRV-NH2 [Adrenorphin]",
    "VALUE": "22.5 nM"
  }
]
